SYSTEM_TESTED: Calcium Channel (3H-nitrendipine binding site, heart membranes) (Oryctolagus cuniculus, UniProt P15381)
Construct: from tissue; host or cells: rabbit heart membrane preparation
Sequence (P15381 whole entry): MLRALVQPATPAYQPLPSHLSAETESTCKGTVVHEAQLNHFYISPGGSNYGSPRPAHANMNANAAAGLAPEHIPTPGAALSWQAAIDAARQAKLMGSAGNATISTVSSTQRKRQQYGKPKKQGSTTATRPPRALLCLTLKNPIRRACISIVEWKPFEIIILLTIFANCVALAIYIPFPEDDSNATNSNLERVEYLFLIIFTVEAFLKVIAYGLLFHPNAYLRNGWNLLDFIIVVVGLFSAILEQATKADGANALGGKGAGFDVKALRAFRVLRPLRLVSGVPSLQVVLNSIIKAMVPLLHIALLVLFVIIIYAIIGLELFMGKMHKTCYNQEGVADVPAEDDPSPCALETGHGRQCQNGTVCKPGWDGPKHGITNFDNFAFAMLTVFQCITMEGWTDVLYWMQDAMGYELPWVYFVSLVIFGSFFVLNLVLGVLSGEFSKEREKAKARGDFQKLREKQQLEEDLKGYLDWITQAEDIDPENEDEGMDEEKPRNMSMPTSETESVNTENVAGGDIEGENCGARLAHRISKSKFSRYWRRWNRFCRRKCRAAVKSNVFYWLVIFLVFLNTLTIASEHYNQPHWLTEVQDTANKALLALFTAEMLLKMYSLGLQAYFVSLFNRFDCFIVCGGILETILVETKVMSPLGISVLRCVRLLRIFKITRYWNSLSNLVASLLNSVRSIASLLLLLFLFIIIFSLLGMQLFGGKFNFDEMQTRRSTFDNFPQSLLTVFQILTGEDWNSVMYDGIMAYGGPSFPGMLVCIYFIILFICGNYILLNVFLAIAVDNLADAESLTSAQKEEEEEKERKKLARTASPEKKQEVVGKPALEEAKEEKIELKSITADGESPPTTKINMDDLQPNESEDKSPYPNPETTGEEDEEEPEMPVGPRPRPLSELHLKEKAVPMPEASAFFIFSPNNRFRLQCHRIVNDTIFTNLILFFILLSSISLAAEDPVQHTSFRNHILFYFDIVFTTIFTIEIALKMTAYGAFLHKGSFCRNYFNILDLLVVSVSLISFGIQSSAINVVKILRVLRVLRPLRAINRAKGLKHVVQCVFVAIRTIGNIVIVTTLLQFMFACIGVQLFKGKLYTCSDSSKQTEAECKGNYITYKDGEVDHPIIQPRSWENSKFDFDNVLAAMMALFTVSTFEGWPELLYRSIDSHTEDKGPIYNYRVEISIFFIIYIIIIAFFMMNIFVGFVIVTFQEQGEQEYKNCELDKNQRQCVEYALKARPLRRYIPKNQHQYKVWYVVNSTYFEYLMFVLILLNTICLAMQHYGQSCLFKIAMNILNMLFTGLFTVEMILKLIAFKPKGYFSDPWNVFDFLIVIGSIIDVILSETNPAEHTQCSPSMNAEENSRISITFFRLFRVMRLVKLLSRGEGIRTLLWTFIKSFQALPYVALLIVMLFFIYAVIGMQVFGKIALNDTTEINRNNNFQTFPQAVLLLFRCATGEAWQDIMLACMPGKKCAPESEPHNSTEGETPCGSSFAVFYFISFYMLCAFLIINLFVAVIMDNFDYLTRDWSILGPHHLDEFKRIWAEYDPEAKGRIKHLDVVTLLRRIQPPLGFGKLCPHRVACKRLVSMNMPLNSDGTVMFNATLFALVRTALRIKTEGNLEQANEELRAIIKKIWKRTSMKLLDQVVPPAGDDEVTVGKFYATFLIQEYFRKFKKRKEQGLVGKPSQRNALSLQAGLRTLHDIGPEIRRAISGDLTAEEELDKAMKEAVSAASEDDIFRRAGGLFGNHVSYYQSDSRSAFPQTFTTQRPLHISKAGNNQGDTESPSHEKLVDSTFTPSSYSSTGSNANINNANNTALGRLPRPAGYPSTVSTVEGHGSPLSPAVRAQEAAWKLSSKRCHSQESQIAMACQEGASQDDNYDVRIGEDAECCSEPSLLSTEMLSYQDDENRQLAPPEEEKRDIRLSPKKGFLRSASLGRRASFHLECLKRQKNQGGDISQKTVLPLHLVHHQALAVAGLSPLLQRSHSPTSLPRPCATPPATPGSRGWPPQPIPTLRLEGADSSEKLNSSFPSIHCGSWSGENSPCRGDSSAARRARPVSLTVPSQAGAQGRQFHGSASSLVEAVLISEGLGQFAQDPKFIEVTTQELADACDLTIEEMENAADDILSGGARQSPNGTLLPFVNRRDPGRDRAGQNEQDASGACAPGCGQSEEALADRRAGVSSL
MEASUREMENT_NOTES: Assay for Inhibition of Nitrendipine Binding (3H-nitrendipine, rabbit heart membranes)
MEASUREMENT_SETUP: Table 2, Formula Ij compounds, 3H-nitrendipine 0.05-0.50 nM, 90 minutes
pIC50: −log10 of the molar value.

{"MOLECULE": "CC1=C(C(=O)OCCOC(=O)c2cccc(C#N)c2)C(c2c(F)cccc2Cl)C2=C(CS(=O)(=O)CCCS2(=O)=O)N1 (centres unmarked)", "pIC50": 7.31}
{"MOLECULE": "CC1=C(C(=O)OCCOC(=O)C2CCCCC2)C(c2c(F)cccc2Cl)C2=C(CS(=O)(=O)CCCS2(=O)=O)N1 (centres unmarked)", "pIC50": 7.19}

---

IC50 listing for selected compounds.
SYSTEM_TESTED: Calcium Channel (3H-nitrendipine binding site, heart membranes) (Oryctolagus cuniculus, UniProt P15381)
Construct: from tissue; host or cells: rabbit heart membrane preparation
MEASUREMENT_NOTES: Assay for Inhibition of Nitrendipine Binding (3H-nitrendipine, rabbit heart membranes)
MEASUREMENT_SETUP: Table 1, Formula Ii compounds, 3H-nitrendipine 0.05-0.50 nM, 90 minutes

{"COMPOUND": "CC1=C(C(=O)OCCOC(=O)C(CCCCNC(=O)OCc2ccccc2)NC(=O)OC(C)(C)C)C(c2c(F)cccc2Cl)C2=C(CS(=O)(=O)CCS2(=O)=O)N1 (stereo not drawn)", "UNIT_ABBREV": "nM", "IC50": 175}
{"COMPOUND": "CC1=C(C(=O)OCCOC(=O)C(N)CCCCN)C(c2c(F)cccc2Cl)C2=C(CS(=O)(=O)CCS2(=O)=O)N1 (single isomer, unassigned)", "UNIT_ABBREV": "nM", "IC50": 51000}
{"COMPOUND": "CC1=C(C(=O)OCCOC(=O)C(C)C)C(c2c(F)cccc2Cl)C2=C(CS(=O)(=O)CCS2(=O)=O)N1 (stereo not drawn)", "UNIT_ABBREV": "nM", "IC50": 2320}
{"COMPOUND": "CC1=C(C(=O)OCCOC(=O)CCN2CCCCC2)C(c2c(F)cccc2Cl)C2=C(CS(=O)(=O)CCS2(=O)=O)N1 (stereo not drawn)", "UNIT_ABBREV": "nM", "IC50": 49000}
{"COMPOUND": "CC1=C(C(=O)OCCOC(=O)c2cccnc2)C(c2c(F)cccc2Cl)C2=C(CS(=O)(=O)CCS2(=O)=O)N1 (stereo not drawn)", "UNIT_ABBREV": "nM", "IC50": 505}
{"COMPOUND": "CC1=C(C(=O)OCCOC(=O)C(NC(=O)OC(C)(C)C)C(C)C)C(c2c(F)cccc2Cl)C2=C(CS(=O)(=O)CCS2(=O)=O)N1 (stereo not drawn)", "UNIT_ABBREV": "nM", "IC50": 405}
{"COMPOUND": "CC1=C(C(=O)OCc2oc(=O)oc2C)C(c2cccc(Cl)c2Cl)C2=C(CS(=O)(=O)CCS2(=O)=O)N1 (stereo not drawn)", "UNIT_ABBREV": "nM", "IC50": 72}
{"COMPOUND": "CC1=C(C(=O)OC2CCOC2=O)C(c2cccc(Cl)c2Cl)C2=C(CS(=O)(=O)CCS2(=O)=O)N1 (stereo not drawn)", "UNIT_ABBREV": "nM", "IC50": 456}
{"COMPOUND": "COc1ccc(C(=O)OCCOC(=O)C2=C(C)NC3=C(C2c2c(F)cccc2Cl)S(=O)(=O)CCS(=O)(=O)C3)cc1 (stereo not drawn)", "UNIT_ABBREV": "nM", "IC50": 69}
{"COMPOUND": "CC1=C(C(=O)OCCOC(=O)C(Cc2ccccc2)N(C)C)C(c2c(F)cccc2Cl)C2=C(CS(=O)(=O)CCS2(=O)=O)N1 (stereo not drawn)", "UNIT_ABBREV": "nM", "IC50": 541}
{"COMPOUND": "CC1=C(C(=O)OCCOC(=O)C(Cc2ccccc2)NC(=O)c2ccccc2)C(c2c(F)cccc2Cl)C2=C(CS(=O)(=O)CCS2(=O)=O)N1 (stereo not drawn)", "UNIT_ABBREV": "nM", "IC50": 358}
{"COMPOUND": "CC1=C(C(=O)OCCOC(=O)CCc2ccccc2)C(c2c(F)cccc2Cl)C2=C(CS(=O)(=O)CCS2(=O)=O)N1 (stereo not drawn)", "UNIT_ABBREV": "nM", "IC50": 48}
{"COMPOUND": "CC1=C(C(=O)OCCOC(=O)c2ccc(C(F)(F)F)cc2)C(c2c(F)cccc2Cl)C2=C(CS(=O)(=O)CCS2(=O)=O)N1 (stereo not drawn)", "UNIT_ABBREV": "nM", "IC50": 48}
{"COMPOUND": "CC1=C(C(=O)OCCOC(=O)C2CCOC2=O)C(c2c(F)cccc2Cl)C2=C(CS(=O)(=O)CCS2(=O)=O)N1 (stereo not drawn)", "UNIT_ABBREV": "nM", "IC50": 19400}
{"COMPOUND": "CC1=C(C(=O)OCCOC(=O)c2cccc(C#N)c2)C(c2c(F)cccc2Cl)C2=C(CS(=O)(=O)CCS2(=O)=O)N1 (stereo not drawn)", "UNIT_ABBREV": "nM", "IC50": 61}

All values here come from patent US6562824B2.
